The origin of these recorded values is patent US20240246964A1.

target: human PD-L1 (Homo sapiens (Human), UniProt Q9NZQ7); assay: T cell activation luciferase reporter cell culture system (T Cell Activation Assay); type: cell-based; settings: luciferase reporter assay; PD-L1 aAPC/CHO-K1 cells with PD-1 effector Jurkat T cells
Sequence (Q9NZQ7 19-290): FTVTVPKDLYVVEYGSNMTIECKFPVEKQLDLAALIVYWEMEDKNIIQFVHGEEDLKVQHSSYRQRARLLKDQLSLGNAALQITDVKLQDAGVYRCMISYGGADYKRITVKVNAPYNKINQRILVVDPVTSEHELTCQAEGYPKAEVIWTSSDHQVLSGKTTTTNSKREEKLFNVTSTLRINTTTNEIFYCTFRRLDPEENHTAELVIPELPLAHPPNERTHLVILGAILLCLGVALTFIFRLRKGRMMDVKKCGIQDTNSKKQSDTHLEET
assay_endpoint: EC50 (nM)
One number for each entry, in nM.

Look over these answered cases.
compound	unit_of_measure	EC50
COc1cc(-c2nccc(-c3cccc(NC(=O)c4cn(C)c(=O)n(C)c4=O)c3Cl)c2Cl)ccc1CNC1CCN(C(C)=O)CC1	nM	589
COc1nc(-c2cccc(-c3nccc(-c4ccc(CN5CCC(O)CC5)c(OC)n4)c3Cl)c2Cl)ccc1CNC1CCN(C(C)=O)CC1	nM	16.9

Please look at the items below and tell me EC50 for each one, in order.
1. COc1cc(-c2nccc(-c3cccc(-c4ccc(CN5CC6(CNC(=O)C6)C5)c(OC)n4)c3Cl)c2Cl)cc(F)c1CN1CC2(CNC(=O)C2)C1
2. COc1cc(-c2nccc(-c3cccc(NC(=O)c4ccc(CNCCO)cn4)c3Cl)c2Cl)ccc1CNC[C@@H]1CCC(=O)N1
3. COc1cc(-c2nccc(-c3cccc(-c4ccc(CN5CC6(CNC(=O)C6)C5)c(OC)n4)c3Cl)c2C#N)ccc1CN1CC2(CNC(=O)C2)C1
4. COc1nc(-c2nccc(-c3cccc(NC(=O)c4cn(C)c(=O)n(C)c4=O)c3Cl)c2Cl)ccc1CNC[C@@H]1CCC(=O)N1
5. COc1cc(-c2nccc(-c3cccc(-c4ccc(CNC[C@@H]5CCC(=O)N5)c(OC)n4)c3Cl)c2Cl)cc(F)c1CNC[C@@H]1CCO1
6. COc1nc(-c2cccc(-c3ccnc(-c4ccc(CNC[C@@H]5CCC(=O)N5)c(OC)n4)c3Cl)c2Cl)ccc1CNC[C@@H]1CCC(=O)N1
7. COc1nc(-c2ccnc(-c3cccc4c3CC[C@@H]4Oc3nc(OC)c(CNC[C@@H]4CCC(=O)N4)cc3C(F)(F)F)c2Cl)ccc1CNC[C@@H]1CCC(=O)N1
8. COc1cc(-c2nccc(-c3cccc(NC(=O)c4ccc(CNCCCF)cn4)c3Cl)c2Cl)ccc1CNCCCF

1: 16.4; 2: 4.48; 3: 39.9; 4: 272; 5: 30.5; 6: 49.6; 7: 1.98; 8: 266

For every item in the list below, what is its measured EC50?
1. COc1nc(-c2cccc(-c3ccnc(-c4ccc(CN5CC6(CNC(=O)C6)C5)c(OC(F)F)c4)c3Cl)c2Cl)ccc1CN1CC2(CNC(=O)C2)C1
2. COc1nc(-c2cccc(-c3ccnc(-c4cc(Cl)c5c(c4)CCN(CCCF)C5)c3Cl)c2Cl)ccc1CNC[C@@H]1CCC(=O)N1
3. COc1nc(-c2ccnc(-c3cccc4c3CC[C@@H]4Nc3nc(OC)c(CNC4(C(=O)O)CC4)cc3C(F)(F)F)c2Cl)ccc1CNC[C@@H]1CCC(=O)N1
4. COC(=O)C1(CN2CCc3cc(-c4nccc(-c5cccc(-c6ccc(CN7CC8(CNC(=O)C8)C7)c(OC)n6)c5Cl)c4Cl)cc(OC)c3C2)CC1
5. COc1cc(-c2nccc(-c3cccc(-c4ccc(CNC5CCN(C(C)=O)CC5)c(OC)n4)c3Cl)c2Cl)ccc1CN1CC2(C1)CN(C(C)=O)C2

1: 16.4; 2: 392; 3: 66.6; 4: 233; 5: 20.3

Provide the reported EC50 of each entry below, same order.
1. COc1cc(-c2nccc(-c3cccc(-c4ccc(CN5CC6(CNC(=O)C6)C5)c(OC)n4)c3Cl)c2Cl)cnc1CNC[C@@H]1CCC(=O)N1
2. COc1cc(-c2nccc(-c3cccc(NC(=O)c4ccc(CNCCO)cn4)c3C)c2Cl)ccc1CNCCO
3. COc1cc(-c2nccc(-c3cccc(-c4cc(Cl)c(CNC[C@@H]5CCC(=O)N5)c(OC)n4)c3Cl)c2Cl)ccc1CN(C)C[C@H](C)O

1: 25; 2: 142; 3: 30.6

Report EC50 for each item below.
1. COc1cc(-c2nccc(-c3cccc(-c4cc(F)c(CNC[C@@H]5CCC(=O)N5)c(OC)n4)c3Cl)c2Cl)cc2c1CN(C[C@@H](C)O)CC2
2. COc1nc(-c2ccnc(-c3cccc4c3CC[C@@H]4Oc3nc(OC)c(CNC4CCN(C(C)=O)CC4)cc3C(F)(F)F)c2Cl)ccc1CNC1CCN(C(C)=O)CC1

1: 35.4; 2: 148
